Biological target: Metabotropic glutamate receptor 8 (Rattus norvegicus) (UniProt P70579)
Sequence (P70579 whole entry, looked up): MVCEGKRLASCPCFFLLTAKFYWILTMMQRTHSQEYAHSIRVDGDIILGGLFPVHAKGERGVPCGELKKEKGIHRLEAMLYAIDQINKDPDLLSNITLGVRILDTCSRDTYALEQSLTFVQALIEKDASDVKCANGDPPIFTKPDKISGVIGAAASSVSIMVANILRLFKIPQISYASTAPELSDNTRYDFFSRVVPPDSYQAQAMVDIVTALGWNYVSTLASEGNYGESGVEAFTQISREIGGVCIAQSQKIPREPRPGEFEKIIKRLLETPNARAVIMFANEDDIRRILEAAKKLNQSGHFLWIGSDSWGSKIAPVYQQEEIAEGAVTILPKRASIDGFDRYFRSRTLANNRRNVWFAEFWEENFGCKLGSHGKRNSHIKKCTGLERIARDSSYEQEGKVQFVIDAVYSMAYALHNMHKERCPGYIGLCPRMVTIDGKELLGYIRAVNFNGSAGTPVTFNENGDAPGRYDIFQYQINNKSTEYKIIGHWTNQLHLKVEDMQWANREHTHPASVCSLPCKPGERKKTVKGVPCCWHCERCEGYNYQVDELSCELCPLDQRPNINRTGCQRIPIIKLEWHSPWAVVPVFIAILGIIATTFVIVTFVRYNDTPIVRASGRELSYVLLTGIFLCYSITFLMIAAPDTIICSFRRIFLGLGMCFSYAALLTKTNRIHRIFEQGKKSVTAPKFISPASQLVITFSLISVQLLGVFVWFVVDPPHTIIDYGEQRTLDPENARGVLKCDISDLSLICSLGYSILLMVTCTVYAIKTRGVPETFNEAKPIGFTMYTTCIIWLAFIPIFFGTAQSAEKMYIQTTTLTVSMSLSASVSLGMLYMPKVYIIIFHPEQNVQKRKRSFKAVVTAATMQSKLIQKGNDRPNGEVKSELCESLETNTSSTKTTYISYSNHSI
Assay: mGluR8 Gi/Go-coupled signaling modulation – cell-based, rat, thallium flux, HTS, primary screen (AID 488969)
Settings: HEK293 rat mGluR8, GIRK thallium flux, FluoZin2; at 10 µM; stronger effect = higher value; submaximal glutamate (EC20) added with thallium
Over roughly 110,000 compounds, “z-score” has its median near -0.1; the highest 2% begin near 2. Many of the other results were omitted from the sample, so the highest values are more common in it than they were.
Please assign a class to every record based on measured z-score, with ranges band A: < -0.2; band B: ≥ -0.2 and < 0.2; band C: ≥ 0.2

Use the examples below as a reference point.
>>> classification("NC(=O)C1CCN(CC(=O)Nc2cccc(C(=O)Nc3cccc(C(F)(F)F)c3)c2)CC1")
"band B"
>>> classification("O=C(Cn1c(=O)[nH]c2ccsc2c1=O)NC1CCCCC1")
"band A"

Query block: Please let me know in which category the item CCOC(=O)C1CCCN(C(=O)CSc2nccn2C)C1 (stereo not given) belongs.
Result block: band C

* * *

Biological target: Metabotropic glutamate receptor 8 (Rattus norvegicus)
Test: mGluR8 Gi/Go-coupled signaling modulation – cell-based, rat, thallium flux, HTS, primary screen (AID 488969)
Conditions: HEK293 rat mGluR8, GIRK thallium flux, FluoZin2; at 10 µM; stronger effect = higher value; submaximal glutamate (EC20) added with thallium
The full ranking holds about 110,000 compounds; the median of “z-score” is about -0.1, and the highest 2% start at about 2. The sample as a whole holds a higher share of the highest values than the screen did.
Could you label it t if measured z-score is 0.4 or higher, and f otherwise?

Use the examples below as a reference point.
>>> classification("CCN(CC)C(=O)CSc1ncnc2c1cnn2Cc1ccccc1")
"f"
>>> classification("Cc1ccc2occ(-c3nn[nH]n3)c(=O)c2c1")
"f"

Query block: Can CC(=O)/C(=N/Nc1ccccc1)Sc1nnc(C(O)c2ccccc2)n1-c1ccccc1 (centres undefined) be said to have z-score at or above 0.4?
Result block: f

Query block: Okay, and Cc1cccc(C)c1NC(=S)NNc1ncc(C(F)(F)F)cc1Cl ?
Result block: f

Query block: Okay, and Cc1ccc(Nc2cc(-n3cccn3)ncn2)c(C)c1 ?
Result block: f

Query block: Okay, and OC(COCC(F)(F)C(F)(F)C(F)(F)C(F)F)Cn1c2ccccc2c2ccccc21 (centres undefined) ?
Result block: f

Query block: Okay, and O=C(CN(Cc1ccc2c(c1)OCO2)C(=O)c1cnsn1)NC1CCCC1 ?
Result block: f

Query block: Okay, and CC(=O)c1c(C)[nH]c(C(=O)CSc2ncnc3sc(-c4ccccc4)cc23)c1C ?
Result block: t

Query block: Okay, and Cc1ccccc1-c1nn[nH]n1 ?
Result block: f

* * *

Target: Metabotropic glutamate receptor 8 (Rattus norvegicus) (UniProt P70579)
Test: mGluR8 Gi/Go-coupled signaling modulation – cell-based, rat, thallium flux, HTS, primary screen (AID 488969)
Conditions: HEK293 rat mGluR8, GIRK (G protein-gated inwardly rectifying potassium channel) thallium flux, FluoZin2; at 10 µM; stronger effect = higher value; submaximal glutamate (EC20) added with thallium
Whole data set: some 110,000 compounds, median “z-score” near -0.1, cut for the highest 2% near 2. Only a selection was taken, and the highest values are over-represented in it overall.
Kindly state z-score for each of the entries shown.
Answers are plain numbers.

>>> data_value("S=c1[nH]nc(-c2ccncc2)n1Cc1ccccc1")
1.42

Fill in z-score for each of the 3 molecules listed.
1. Cc1cccc(Nc2nc(NCc3ccco3)c3ccccc3n2)c1
2. Cc1cc(C(=O)CSc2n[nH]c(N)n2)c(C)n1-c1cc(F)ccc1F
3. COc1ccc(N2C(=O)/C(=C/c3cccs3)NC2=S)cc1

Result block:
0.729
6.6
1.07

Fill in z-score for each of the 2 molecules listed.
1. CCOc1cc(C2NN=C(c3ccccc3)S2)ccc1OCc1ccc(F)cc1 (stereo unspecified)
2. Cc1cccc(Nc2nc(N)c([N+](=O)[O-])c(NCc3ccco3)n2)c1

Result block:
1: 0.745; 2: 2.38

Fill in z-score for each of the 5 molecules listed.
1. N#Cc1c(N2CCN(C(=O)c3ccccc3Cl)CC2)nc(-c2ccccc2)c2c1CCCC2
2. CCCN1C(=O)c2cccc3c(N4CCCCC4)ccc(c23)C1=O
3. CCc1cc(-c2n[nH]c(=S)n2CC(C)C)cs1
4. O=C1Nc2ccccc2S/C1=C/Nc1cccc(Cl)c1
5. Cc1ccc(Nc2nc(N)c([N+](=O)[O-])c(NCc3ccco3)n2)cc1

Result block:
-0.453
-0.337
1.12
-0.29
-0.288

Fill in z-score for each of the 8 molecules listed.
1. CC(/C=N/NC(=O)c1cc(-c2ccccc2)nc2ccccc12)=C\c1ccco1
2. Nc1nc(Nc2ccccc2)nc(NCc2ccco2)c1[N+](=O)[O-]
3. CCSc1cc(N2CCCC2)nc(-c2ccccc2Cl)n1
4. COC(=O)C1=C(C)N(CC(C)C)C(=O)/C1=C\c1cccs1
5. COC(=O)C(NC(=O)COc1ccccc1)(Nc1nc2c(s1)CCCC2)C(F)(F)F (stereo unspecified)
6. Cc1nn(CC(O)COc2ccc3c(c2)CCC3)c(C)c1C (stereo unspecified)
7. CCCN1C(=O)/C(=C/c2ccc(C)s2)NC1=S
8. CN(C)c1ccc(/C=N\Nc2nc(-c3ccccc3)cc(=O)[nH]2)cc1

Result block:
-0.0414
4.24
-0.31
-0.236
2.96
-0.0908
13.9
-0.138

Cited source: PubChem BioAssay AID488969
